test system: WT Max(13-93) synthetic (M65Nle); experiment: PBM 8-mer E-score (E-score (rank enrichment, -0.5 to 0.5)); higher = stronger preferential binding
In all, about 33,000 sequences were measured (“E-score (rank enrichment, -0.5 to 0.5)”: median about -0.0075, highest 2% from about 0.23 on). The sample holds the highest values, similar sequences and a random draw of the others, so the mix is not that of the screen.
Please assign a class to every record based on measured PBM 8-mer E-score, with ranges range A = under 0.1, range B = from 0.1 up to 0.2, range C = 0.2 and over

Example cases with answers are listed next.
chain: TGTGTTAA
category label: range C
--
chain: ACCATGTG
category label: range C
--
chain: ACCATGCT
category label: range C
--
chain: ACCATGCG
category label: range C
--
chain: AACATGCT
category label: range C
--
chain: ACCATGTA
category label: range B

Into which bin does this sequence go? AACATGGT
range A

Band for the recorded PBM 8-mer E-score of ACCATGAT ?
range B

Which class does ACCATGTC fall in?
range A

Which class does ACCATGCC fall in?
range A
